Origin of the recorded values: PubChem BioAssay (NCI)

Experiment: NCI Yeast Anticancer Drug Screen. Data for the cln2 rad14 strain (AID 165);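 further: 0% = growth equal to vehicle treated cultures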
Details: S. cerevisiae cln2 rad14 strain, at 50.0 µM, active compounds read high
Compounds without any hit were thinned out: in the full panel of roughly 79,000, 15% have a hit. Calls of active or inactive are those of the source. No stated cut-off is given here; in the data, active means growth inhibition above about 70%; inactive means the rest.
Measured quantity: growth inhibition

1) CCCCC(CCc1ccccc1)(C(=O)O)c1ccccc1 (stereo not given) ... 99% (active)
2) N=C(N)c1ccc(N=Nc2cc(/C=C/c3ccccc3)ccc2O)cc1 ... 98.3% (active)
3) COC/C(Br)=C\SC#N (tested in a mixture with another compound) ... 97.7% (active)
4) COc1cccc(C2c3cc4c(cc3OC(NNS(=O)(=O)c3ccc(C)cc3)C2C)OCO4)c1O (stereo not given) ... 87.2% (active)
5) CC(=O)/C(=C\c1ccccc1Cl)C(=O)CCN(C)C ... 20.6% (inactive)
